# measured.on: phthalyl amidase (Xanthobacter agilis)
# Construct: 42-aa signal peptide removed
# Sequence (P0C2Y0 2-453): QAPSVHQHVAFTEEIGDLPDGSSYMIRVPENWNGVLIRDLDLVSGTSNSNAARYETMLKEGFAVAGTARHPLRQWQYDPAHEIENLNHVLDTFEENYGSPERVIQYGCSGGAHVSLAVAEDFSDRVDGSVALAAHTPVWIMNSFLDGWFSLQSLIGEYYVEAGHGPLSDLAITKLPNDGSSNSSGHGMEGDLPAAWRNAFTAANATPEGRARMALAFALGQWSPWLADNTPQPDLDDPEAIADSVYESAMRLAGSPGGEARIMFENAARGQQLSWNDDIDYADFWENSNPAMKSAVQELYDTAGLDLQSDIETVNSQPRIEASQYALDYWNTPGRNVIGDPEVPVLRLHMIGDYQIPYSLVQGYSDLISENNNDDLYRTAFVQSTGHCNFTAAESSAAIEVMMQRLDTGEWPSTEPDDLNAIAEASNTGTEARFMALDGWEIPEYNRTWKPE
# assay.overview: Influence of effectors and organic solvents on enzyme activity
# Type: biochemical
# condition.label: agent at 1 mM final concentration; read-out: % of Control Activity
Attribute: remaining activity at 1000 µM
Unit % implied. Number only.

Some compounds with known remaining activity at 1000 µM results, for comparison:
O[C@H](CS)[C@H](O)CS (racemic) [DTT, dithiothreitol]	100
NC(=O)c1ccc[n+]([C@@H]2O[C@H](COP(=O)([O-])OP(=O)(O)OC[C@H]3O[C@@H](n4cnc5c(N)ncnc54)[C@H](OP(=O)(O)O)[C@@H]3O)[C@@H](O)[C@H]2O)c1 [NADP]	99

For the compound shown here, Cc1cc2nc3c(=O)[nH]c(=O)nc-3n(C[C@H](O)[C@H](O)[C@H](O)COP(=O)(O)OP(=O)(O)OC[C@H]3O[C@@H](n4cnc5c(N)ncnc54)[C@H](O)[C@@H]3O)c2cc1C [FAD, flavin adenine dinucleotide] , give the reported remaining activity at 1000 µM. 101

Which remaining activity at 1000 µM value belongs to Nc1ncnc2c1ncn2[C@@H]1O[C@H](COP(=O)(O)OP(=O)(O)OP(=O)(O)O)[C@@H](O)[C@H]1O [ATP, adenosine 5triphosphate] ? 96

Item NC(=O)C1=CN([C@@H]2O[C@H](COP(=O)(O)OP(=O)(O)OC[C@H]3O[C@@H](n4cnc5c(N)ncnc54)[C@H](OP(=O)(O)O)[C@@H]3O)[C@@H](O)[C@H]2O)C=CC1 [NADPH] has what recorded remaining activity at 1000 µM? 99

Which value of remaining activity at 1000 µM has been reported for NC(=O)C1=CN([C@@H]2O[C@H](COP(=O)(O)OP(=O)(O)OC[C@H]3O[C@@H](n4cnc5c(N)ncnc54)[C@H](O)[C@@H]3O)[C@@H](O)[C@H]2O)C=CC1 [NADH] in the records? 96

Param item = Cc1ncc(COP(=O)(O)O)c(C=O)c1O [PLP, pyridoxyl5-phosphate] ; retrieve measured remaining activity at 1000 µM. 106

Query: remaining activity at 1000 µM; subject: OCCS [Mercaptoethanol] 105

# remaining activity at 1000 µM lookup, item CC(C)(COP(=O)(O)OP(=O)(O)OC[C@H]1O[C@@H](n2cnc3c(N)ncnc32)[C@H](O)[C@@H]1OP(=O)(O)O)[C@@H](O)C(=O)NCCC(=O)NCCS [CoASH] 102

State the recorded remaining activity at 1000 µM for this entry: Nc1nc2c(c(=O)[nH]1)N[C@H](CNc1ccc(C(=O)N[C@@H](CCC(=O)O)C(=O)O)cc1)CN2 [THF, tetrahydrofolate] 100

Find the recorded remaining activity at 1000 µM belonging to O=C(O)c1cc(SSc2ccc([N+](=O)[O-])c(C(=O)O)c2)ccc1[N+](=O)[O-] [DTNB, dithionitrobenzoate] and report it. 98

// returns reported remaining activity at 1000 µM for input c1cnc2c(c1)ccc1cccnc12 [Phenanthroline] 104

Look up remaining activity at 1000 µM: CCN1C(=O)C=CC1=O [NEM, Nethylmaleimide] 100

# remaining activity at 1000 µM lookup, item NC(=O)c1ccc[n+]([C@@H]2O[C@H](COP(=O)([O-])OP(=O)(O)OC[C@H]3O[C@@H](n4cnc5c(N)ncnc54)[C@H](O)[C@@H]3O)[C@@H](O)[C@H]2O)c1 [NAD, nicotinamide adenine nucleotide] 101
